test system: MOLT-4; assay: NCI tumour cell line growth inhibition, 48 h
Activity calls are given as the source filed them. No stated cut-off is given here; in the data, active = GI50 up to about 1.1 µM and inactive = higher.
quantityKind: GI50

Some molecules with known GI50 results, for comparison:
molecule	testTarget	GI50
CCn1c2c(c3ccccc31)[C@@H](c1ccc(Cl)cc1)CC1C(=O)N(c3ccccc3)C(=O)C21 (stereo partly drawn)	MOLT-4	42.7 µM (inactive)
COc1cc2ccc1NC(=O)N1CCN(CC1)C(=O)Nc1ccc(cc1OC)-c1ccc(c(OC)c1)NC(=O)N1CCN(CC1)C(=O)Nc1ccc-2cc1OC	MOLT-4	> 100 µM (inactive)

# evaluate next
The molecule "CC[C@@H]1C[C@H]2CC3c4[nH]c5ccc(O)cc5c4CCN(C2)C31" showed GI50 equal to > 100 µM (inactive)

###

system: LOX IMVI; assay: NCI tumour cell line growth inhibition, 48 h
Calls of active or inactive are those of the source. No stated cut-off is given here; in the data, active = GI50 up to about 1.1 µM and inactive = higher.
quantityKind: GI50

Solved cases (3 shown):
molecule	testTarget	dataValue
O=C1NCN(c2ccccc2)C12CCN(CCCSc1ccc(F)cc1)CC2	LOX IMVI	10.5 µM (inactive)
NCCS(=O)(=O)O [TAURINE]	LOX IMVI	> 100 µM (inactive)
COC(=O)c1c(O)ccc2c1c1c(n2Cc2cccc(C)c2)C(=O)c2ccccc2C1=O	LOX IMVI	11.7 µM (inactive)

GI50 value, target or system LOX IMVI, for "CCc1ccc2oc(=O)ccc2c1" : > 100 µM (inactive)

The reported LOX IMVI GI50 of "CC1(C)CC(=O)C(=CNc2nc(-c3cccc([N+](=O)[O-])c3)cs2)C(=O)C1" is 13.7 µM (inactive)

// returns GI50 for Cc1ccc([N+](=O)[O-])cc1NC(=O)/C(=N/NC(=S)NN)C1SC(=S)NC1=O (stereo unspecified) with LOX IMVI; value = > 100 µM (inactive)

// assay LOX IMVI, entry O=C1N/C(=N/N=C\C(O)C(O)C(O)C(O)CO)N/C1=C\c1ccc(Cl)cc1 (stereo unspecified) , GI50 value = 5.5 µM (inactive)

Record CC(=O)C1C(=O)C(=O)N(c2ccccc2)C1=O (stereo unspecified) has LOX IMVI GI50 equal to > 100 µM (inactive)

GI50 value, target or system LOX IMVI, for "Cc1cccc2nc3c(C(=O)NCCN(C)C)cccc3cc12" : 1.26 µM (inactive)

Summary line: "C=CCc1cc(-c2cc(CC=C)c(O)c(CN(CC)CC)c2)cc(CN(CC)CC)c1O" , LOX IMVI, reported GI50 = 16 µM (inactive)

Log: LOX IMVI, molecule "CCOC(=O)NC(Nc1cccc(C(F)(F)F)c1)(C(F)(F)F)C(F)(F)F" , GI50 = > 100 µM (inactive)

###

test system: NCI/ADR-RES; experiment: NCI tumour cell line growth inhibition, 48 h
Calls of active or inactive are those of the source. Cut-off read from the data, not from the text of the source: active = GI50 up to about 1.1 µM and inactive = higher.
quantityKind: GI50

Please review the following examples before continuing.
compound	testTarget	GI50
C=CCN(CCNS(=O)(=O)c1ccc(C)cc1)S(=O)(=O)c1ccc(C)cc1	NCI/ADR-RES	> 60.5 µM (inactive)
CC(=O)Nc1ccc(NCC(=O)Nn2cnc3ccc(S(=O)(=O)Nc4ccc(NC(C)=O)cc4)cc3c2=O)cc1	NCI/ADR-RES	> 100 µM (inactive)
CC(C)(C)OC(=O)N1CCC(C(=O)O)CC1	NCI/ADR-RES	> 100 µM (inactive)
CC(C)(NC(=O)OCc1ccccc1)C(=O)OC(=O)C(C)(C)NC(=O)OCc1ccccc1	NCI/ADR-RES	> 100 µM (inactive)

Looking up "COc1ccc2[nH]c3c(O)c(-c4c(C)cc5c([nH]c6ccc(OC)cc65)c4O)c(C)cc3c2c1" , I see its GI50 listed as 4.24 µM (inactive)

GI50 reported for this compound Cc1cc(O)c2c(c1)C(=O)C(c1c(C)cc3c(c1O)C(=O)C1OC1C3=O)=CC2=O (stereo unspecified) : 2.77 µM (inactive)

Entry under test: "C=CS(=O)(=O)c1c2cc(OC)ccc2nc2ccc(OC)cc12" . Its GI50 was 10.4 µM (inactive)

What the record says about COc1cc(C2(c3ncc[nH]3)SSSCC2O)ccc1O (stereo unspecified) : GI50 is > 40.6 µM (inactive)

Lab note: measured GI50 of CCOC(=O)/C=C(/C(=O)OCC)n1c(=O)c(C)cn(C2CC(N=[N+]=[N-])C(CO)O2)c1=O (stereo unspecified) was > 100 µM (inactive)

The value of GI50 measured for the compound "N#Cc1c(-c2ccc(Cl)cc2)c(C#N)c(=O)n(NS(=O)(=O)c2ccccc2)c1S" turned out to be 21.2 µM (inactive)

Form: compound = "CCOC(=O)c1c[nH]cc1-c1cn(S(=O)(=O)c2ccccc2)cc1C" ; GI50 = 22.2 µM (inactive)

###

tested on: CCRF-CEM; experiment: NCI tumour cell line growth inhibition, 48 h
Calls of active or inactive are those of the source. Rule as the data show it: active = GI50 up to about 1.1 µM and inactive = higher.
Respond using exactly one of the listed classes: t for active, f for inactive

So what was the verdict on "Cc1c2cc[n+](C)c(C)c2cc2c1[nH]c1ccccc12" in this test?
f

I'd appreciate the recorded outcome for "CC(C)=C1C(=O)C[C@]2(C)C/C=C(\C)CC/C=C(\C)CC[C@@H]12" from this test.
f

GET /call?item= "COc1cc(/C=C2\[C@H]3c4c(c(OC)c(C)c(OC)c4OC)C[C@@H](C(=O)N2Cc2ccccc2)N3C(=O)OCC(C)C)c(OC)c(C)c1OC" returns the recorded outcome of this test.
f

Which outcome did this test record for the molecule "O=C(N/N=C/c1ccc2c(c1)OCO2)Nc1ccccc1Cl" ?
f

###

test system: EKVX; assay: NCI tumour cell line growth inhibition, 48 h
The source made the active and inactive calls. Cut-off read from the data, not from the text of the source: active = GI50 up to about 1.1 µM and inactive = higher.
quantityKind: GI50

molecule	quantityKind	dataValue
CC1(C)COC(/C=C/C2=NC(C)(C)CO2)=N1	GI50	16.9 µM (inactive)
C=CCNC(=S)N1CC(C)C(=O)Nc2cc(Cl)ccc21 (stereo unspecified)	GI50	> 100 µM (inactive)
O=c1/c(=C/c2ccccc2F)sc2nc3ccccc3n12	GI50	> 100 µM (inactive)

For this molecule ( "CCOC(=O)NC(Nc1cccc(C(F)(F)F)c1)(C(F)(F)F)C(F)(F)F" ), measured GI50 is > 100 µM (inactive)

Notebook: CC1(C)CC2=NC(SSC3=C(C#N)C(c4ccc(Br)cc4)C4=C(O)CC(C)(C)CC4=N3)=C(C#N)C(c3ccc(Br)cc3)C2=C(O)C1 (stereo unspecified) , GI50 read as > 100 µM (inactive)

Lookup result for "O=C(O)CCc1coc2ccc(O)cc12" ; measured GI50: > 100 µM (inactive)

Kindly note the recorded GI50 for "CCOC(=O)CSc1nc2ccccc2c(=O)n1N" , which is > 100 µM (inactive)

Looking up "O=C(NC12CC3CC(CC(C3)C1)C2)C(=O)c1c[nH]c2ccc([N+](=O)[O-])cc12" , I found its GI50 recorded as 97.3 µM (inactive)

Form: molecule = CC(=O)Nc1ccc(C(=O)NN2C(=O)C(Cl)C2c2ccc(O)cc2)cc1 (stereo unspecified) ; GI50 = > 100 µM (inactive)

Lookup result for "Clc1cc(N/N=C(/c2ccccc2)c2ncccn2)ncn1" ; measured GI50: 17 µM (inactive)

Data point: CCOC(=O)C1S/C(=N/c2ccc(Cl)cc2C)N=C1C (stereo unspecified) ; GI50 = 32.2 µM (inactive)

###

system: UACC-257; assay: NCI tumour cell line growth inhibition, 48 h
Active and inactive are the calls of the source. Rule as the data show it: active = GI50 up to about 1.1 µM and inactive = higher.
quantityKind: GI50

compound	GI50
c1ccc2nn(C3CCCO3)nc2c1 (stereo unspecified)	> 100 µM (inactive)

Lab note: measured GI50 of "O=C(CC(=O)n1nc(-c2ccccc2)c(/N=N/c2ccccc2C(=O)O)c1-c1ccccc1)Nc1ccc(Cl)cc1" was 32 µM (inactive)

Documented GI50 of "CN(C)c1ccc(/C=C(/NC(=O)c2ccccc2)C(=O)Nc2ccccc2C(=O)O)cc1" : > 100 µM (inactive)

Reported GI50 of C[S+]([O-])c1ncc2c(n1)-c1ccccc1OC2 (stereo unspecified) : 40.3 µM (inactive)

// GI50 value for O=C1N/C(=N/N=C\C(O)C(O)C(O)C(O)CO)N/C1=C\c1ccc(Cl)cc1 (stereo unspecified) : 14.5 µM (inactive)

Data point: "CSc1nncc2[nH]cnc12" ; GI50 = > 100 µM (inactive)

###

tested on: LOX IMVI; assay: NCI tumour cell line growth inhibition, 48 h
The source made the active and inactive calls. Rule as the data show it: active = GI50 up to about 1.1 µM and inactive = higher.
Your response should consist of one outcome taken from 1 = active, 0 = inactive

// return assay outcome for "COC1=CC(=Nc2c(Cl)cc(Cl)cc2OC(=O)c2ccc([N+](=O)[O-])cc2)C=C(OC)C1=O"
0

So what was the verdict on COc1ccc(N2C(=O)C(C)SC2c2cc3cc(Br)ccc3nc2Cl)cc1 (stereo unspecified) in this test?
0

For "CC(C)(NC(=O)OCc1ccccc1)C(=O)OC(=O)C(C)(C)NC(=O)OCc1ccccc1" , which call appears in the assay record?
0
